- target.of.assay: human δ opioid receptor (Homo sapiens, UniProt P41143)
- Sequence (P41143 whole entry): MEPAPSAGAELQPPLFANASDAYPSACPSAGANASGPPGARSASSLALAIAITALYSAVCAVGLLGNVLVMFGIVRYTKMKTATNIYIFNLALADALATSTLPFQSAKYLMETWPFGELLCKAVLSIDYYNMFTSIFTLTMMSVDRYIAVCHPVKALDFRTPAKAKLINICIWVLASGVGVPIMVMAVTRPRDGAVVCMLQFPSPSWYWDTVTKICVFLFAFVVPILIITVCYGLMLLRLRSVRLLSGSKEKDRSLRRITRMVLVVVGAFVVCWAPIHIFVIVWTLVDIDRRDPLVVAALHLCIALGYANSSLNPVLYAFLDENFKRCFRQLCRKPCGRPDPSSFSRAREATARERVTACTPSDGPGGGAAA
assay.metric: Ki

Reported Ki for c1c2c(cc3sc(N4CCNCC4)nc13)C[C@@H]1[C@@H]3CCCC[C@]23CCN1CC1CC1 : what is it?
> 10 µM

Data origin, for the record: paper PMC3068608
